subject-of-test: T1, recombinant human GM-CSF (human, UniProt P04141 18-144)
T1 construct: also called rhGM-CSF; CSF2
test: ELISA on coated rhGM-CSF, UBA relative to 1D2
measured-parameter: binding affinity % of 1D2 (%)
Only the number, expressed in %, is required.

### Prompt Would you mind telling me what binding affinity % of 1D2 value was observed for 1D2 SDR mutant HY103V (antibody, IgG1, V domains shown, also called X6 V) VH: QVQLVQSGAEVKKPGASVKVSCEASGYTFTDKYLHWVRQAPGQGLEWMAWINPKSGGTFYAQNFKGRVTVTRDTSINTAYLELTSLRLDDTSTYYCARGRDYVDQGAADLWGQGTMVTVSS VL: DIQLTQSPSSLSASVGDRVTITCRASQGINSVLAWYQQKPGKAPKLLLYAASKLESGVPSRFSGSGSGTDYTLTISSLQPEDFGTYYCQQYYSPVRTFGQGTKVEIKR ?
### Response 88

### Prompt Would you mind telling me what binding affinity % of 1D2 value was observed for 1D2 SDR mutant HY102N (antibody, IgG1, V domains shown, also called X5 N) VH: QVQLVQSGAEVKKPGASVKVSCEASGYTFTDKYLHWVRQAPGQGLEWMAWINPKSGGTFYAQNFKGRVTVTRDTSINTAYLELTSLRLDDTSTYYCARGRDNYDQGAADLWGQGTMVTVSS VL: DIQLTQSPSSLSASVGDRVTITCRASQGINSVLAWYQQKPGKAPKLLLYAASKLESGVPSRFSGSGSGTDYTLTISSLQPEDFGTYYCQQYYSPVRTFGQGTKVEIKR ?
### Response 83

### Prompt Would you mind telling me what binding affinity % of 1D2 value was observed for 1D2 SDR mutant HY102A (antibody, IgG1, V domains shown, also called X5 A) VH: QVQLVQSGAEVKKPGASVKVSCEASGYTFTDKYLHWVRQAPGQGLEWMAWINPKSGGTFYAQNFKGRVTVTRDTSINTAYLELTSLRLDDTSTYYCARGRDAYDQGAADLWGQGTMVTVSS VL: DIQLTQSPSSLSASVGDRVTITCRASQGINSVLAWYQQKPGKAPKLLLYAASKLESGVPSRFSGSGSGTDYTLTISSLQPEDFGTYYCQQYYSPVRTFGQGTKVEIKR ?
### Response 68

### Prompt Would you mind telling me what binding affinity % of 1D2 value was observed for 1D2 SDR mutant HK54I (antibody, IgG1, V domains shown, also called X3 I) VH: QVQLVQSGAEVKKPGASVKVSCEASGYTFTDKYLHWVRQAPGQGLEWMAWINPISGGTFYAQNFKGRVTVTRDTSINTAYLELTSLRLDDTSTYYCARGRDYYDQGAADLWGQGTMVTVSS VL: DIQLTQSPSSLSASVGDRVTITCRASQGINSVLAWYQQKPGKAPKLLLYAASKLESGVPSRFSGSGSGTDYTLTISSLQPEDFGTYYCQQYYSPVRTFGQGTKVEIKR ?
### Response 100

### Prompt Would you mind telling me what binding affinity % of 1D2 value was observed for 1D2 SDR mutant LV95E (antibody, IgG1, V domains shown, also called X10 E) VH: QVQLVQSGAEVKKPGASVKVSCEASGYTFTDKYLHWVRQAPGQGLEWMAWINPKSGGTFYAQNFKGRVTVTRDTSINTAYLELTSLRLDDTSTYYCARGRDYYDQGAADLWGQGTMVTVSS VL: DIQLTQSPSSLSASVGDRVTITCRASQGINSVLAWYQQKPGKAPKLLLYAASKLESGVPSRFSGSGSGTDYTLTISSLQPEDFGTYYCQQYYSPERTFGQGTKVEIKR ?
### Response 40

### Prompt Would you mind telling me what binding affinity % of 1D2 value was observed for 1D2 SDR mutant LV32R (antibody, IgG1, V domains shown, also called X8 R) VH: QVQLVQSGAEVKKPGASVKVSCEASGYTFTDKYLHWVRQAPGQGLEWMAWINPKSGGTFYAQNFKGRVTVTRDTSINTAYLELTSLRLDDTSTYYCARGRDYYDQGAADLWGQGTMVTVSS VL: DIQLTQSPSSLSASVGDRVTITCRASQGINSRLAWYQQKPGKAPKLLLYAASKLESGVPSRFSGSGSGTDYTLTISSLQPEDFGTYYCQQYYSPVRTFGQGTKVEIKR ?
### Response 1030

### Prompt Would you mind telling me what binding affinity % of 1D2 value was observed for 1D2 SDR mutant HY103L (antibody, IgG1, V domains shown, also called X6 L) VH: QVQLVQSGAEVKKPGASVKVSCEASGYTFTDKYLHWVRQAPGQGLEWMAWINPKSGGTFYAQNFKGRVTVTRDTSINTAYLELTSLRLDDTSTYYCARGRDYLDQGAADLWGQGTMVTVSS VL: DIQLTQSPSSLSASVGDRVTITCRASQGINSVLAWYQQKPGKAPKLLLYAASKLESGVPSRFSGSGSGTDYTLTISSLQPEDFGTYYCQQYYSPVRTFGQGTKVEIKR ?
### Response 67

### Prompt Would you mind telling me what binding affinity % of 1D2 value was observed for 1D2 SDR mutant HK32E (antibody, IgG1, V domains shown, also called X2 E) VH: QVQLVQSGAEVKKPGASVKVSCEASGYTFTDEYLHWVRQAPGQGLEWMAWINPKSGGTFYAQNFKGRVTVTRDTSINTAYLELTSLRLDDTSTYYCARGRDYYDQGAADLWGQGTMVTVSS VL: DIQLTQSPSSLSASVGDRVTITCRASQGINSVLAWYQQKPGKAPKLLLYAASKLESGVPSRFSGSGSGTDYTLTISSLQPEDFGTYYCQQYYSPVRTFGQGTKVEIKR ?
### Response 94

### Prompt Would you mind telling me what binding affinity % of 1D2 value was observed for 1D2 SDR mutant HD31R (antibody, IgG1, V domains shown, also called X1 R) VH: QVQLVQSGAEVKKPGASVKVSCEASGYTFTRKYLHWVRQAPGQGLEWMAWINPKSGGTFYAQNFKGRVTVTRDTSINTAYLELTSLRLDDTSTYYCARGRDYYDQGAADLWGQGTMVTVSS VL: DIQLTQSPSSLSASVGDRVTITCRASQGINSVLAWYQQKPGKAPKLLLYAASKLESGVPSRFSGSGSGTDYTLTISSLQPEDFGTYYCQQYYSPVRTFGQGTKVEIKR ?
### Response 73

### Prompt Would you mind telling me what binding affinity % of 1D2 value was observed for 1D2 SDR mutant HQ105W (antibody, IgG1, V domains shown, also called X7 W) VH: QVQLVQSGAEVKKPGASVKVSCEASGYTFTDKYLHWVRQAPGQGLEWMAWINPKSGGTFYAQNFKGRVTVTRDTSINTAYLELTSLRLDDTSTYYCARGRDYYDWGAADLWGQGTMVTVSS VL: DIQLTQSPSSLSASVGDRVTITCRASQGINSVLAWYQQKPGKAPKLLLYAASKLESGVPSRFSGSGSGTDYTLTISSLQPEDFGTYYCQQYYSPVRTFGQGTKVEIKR ?
### Response 68

Data provenance is patent US20210309732A1.
